- target under test: human PAI-1, active, wild-type, non-glycosylated (E. coli-derived) (human, UniProt P05121 24-402)
- Sequence (P05121 24-402): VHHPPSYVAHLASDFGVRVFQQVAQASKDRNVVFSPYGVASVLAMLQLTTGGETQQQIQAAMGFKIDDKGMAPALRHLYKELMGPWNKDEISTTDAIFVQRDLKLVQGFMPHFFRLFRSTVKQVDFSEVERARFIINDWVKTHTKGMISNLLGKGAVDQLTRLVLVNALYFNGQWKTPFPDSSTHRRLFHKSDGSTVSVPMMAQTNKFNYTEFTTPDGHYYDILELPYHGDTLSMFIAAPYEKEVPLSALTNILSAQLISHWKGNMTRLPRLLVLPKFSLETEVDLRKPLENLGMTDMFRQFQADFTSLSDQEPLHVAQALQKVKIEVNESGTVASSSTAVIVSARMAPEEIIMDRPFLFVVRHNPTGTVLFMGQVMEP
- assay comment: cell-based or functional assay
Collected IC50 HT-1080 Exo PAI-1 values appear next to each entry.
readout label: IC50 HT-1080 Exo PAI-1 (nM)

>>> test_value("Antibody 08, scFv (scFv, V domains shown) VH: QVQLVQSGAEVKKPGSSVKVSCKASGGTFSSYAISWVRQAPGQGLEWMGGIIPTFGTANYAQKFQGRVTITADESTSTAYMELSSLRSEDTAVYYCARERRQWLEGHFDYWGRGTLVTVSS VL: DIQMTQSPSTLSASVGDRVTITCRASEGIYHNLAWYQQKPGKAPKLLIYKASSLASGVPSRFSGSRSGTEFTLTISSLQPDDFATYYCQQYSNYPLTFGGGTKVEIK")
23.7
>>> test_value("Antibody 20, IgG1, not germlined (antibody, V domains shown, whole IgG1; also called Ab 20) VH: QVQLQQSGAEVKKPGSSVKVSCKASGGTFSSYAISWVRQAPGQGLEWMGGIIPTFGTANYAQKFQGRVTITADESTSTAYMELSSLRSEDTAVYYCAREKRQWLEGHFDYWGRGTLVTVSS VL: DIQMTQSPSTLSASVGDRVTITCRASEGIYHELAWYQQKPGKAPKLLIYRASSLASGVPSRFSGSRSGTEFTLTISSLQPDDFATYYCQQYSDYPLTFGGGTKVEIK")
7.3
>>> test_value("Antibody 16, scFv (scFv, V domains shown) VH: QVQLVQSGAEVKKPGSSVKVSCKASGGTFSSYAISWVRQAPGQGLEWMGGIIPTFGTANYAQKFQGRVTITADESTSTAYMELSSLRSEDTAVYYCAREKRQWLEGHFDYWGRGTLVTVSS VL: DIQMTQSPSTLSASVGDRVTITCRASESIYHSLAWYQQKPGKAPKLLIYKASSLASGVPSRFSGSRSGTEFTLTISSLQPDDFATYYCQQYSNYPLTFGGGTKVEIK")
16.9
>>> test_value("Antibody 27, IgG1, not germlined (antibody, V domains shown, whole IgG1; also called Ab 27) VH: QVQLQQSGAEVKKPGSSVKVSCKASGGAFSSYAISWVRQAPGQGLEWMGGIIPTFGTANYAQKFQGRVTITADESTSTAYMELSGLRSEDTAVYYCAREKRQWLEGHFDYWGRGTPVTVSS VL: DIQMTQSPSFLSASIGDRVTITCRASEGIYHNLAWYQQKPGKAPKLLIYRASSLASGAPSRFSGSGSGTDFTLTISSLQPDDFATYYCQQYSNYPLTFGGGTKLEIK")
10.9
>>> test_value("Antibody 03, IgG4, not germlined (antibody, V domains shown) VH: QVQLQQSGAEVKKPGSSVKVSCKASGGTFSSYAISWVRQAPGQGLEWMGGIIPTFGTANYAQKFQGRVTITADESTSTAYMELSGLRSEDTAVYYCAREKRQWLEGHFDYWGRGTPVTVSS VL: DIQMTQSPSFLSASIGDRVTITCRASEGIYRSLAWYQQKPGKAPKLLIYKASSLASGAPSRFSGSGSGTDFTLTISGLQPDDFATYYCQQYSNYPLTFGGGTKLEIK")
9.5
>>> test_value("Antibody 02, IgG1, not germlined (antibody, V domains shown) VH: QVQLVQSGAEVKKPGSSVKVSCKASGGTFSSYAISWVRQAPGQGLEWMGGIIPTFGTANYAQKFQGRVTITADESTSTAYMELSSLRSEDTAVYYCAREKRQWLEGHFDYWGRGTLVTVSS VL: DIQMTQSPSTLSASVGDRVTITCRASEGIYHSLAWYQQKPGKAPKLLIYKASSLASGVPSRFSGSGSGTEFTLTISSLQPDDFATYYCQQYSDYPLTFGGGTKVEIK")
8.7
>>> test_value("Antibody 09, scFv (scFv, V domains shown) VH: QVQLQQSGAEVKKPGSSVKVSCKASGGTFSSYAISWVRQAPGQGLEWMGGIIPAFDTANYAQKFQGRVTITADESTSTAYMELSGLRSEDTAVYYCAREKRQWLEGHFDYWGRGTPVTVSS VL: DIQMTQSPSFLSASIGDRVTITCQASEGIYHNLAWYQQKPGKAPKLLIYRASSLASGAPSRFSGSGSGTDFTLTISSLQPDDFATYYCQQYSNYPLTFGGGTKLEIK")
23
>>> test_value("Antibody 20, scFv (scFv, V domains shown) VH: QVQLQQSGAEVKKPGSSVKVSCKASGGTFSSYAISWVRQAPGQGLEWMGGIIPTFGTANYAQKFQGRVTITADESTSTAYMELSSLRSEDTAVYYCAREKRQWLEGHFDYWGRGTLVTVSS VL: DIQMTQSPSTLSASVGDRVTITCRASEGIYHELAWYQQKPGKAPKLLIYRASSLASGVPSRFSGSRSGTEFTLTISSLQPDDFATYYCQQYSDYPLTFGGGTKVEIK")
19.1
